System: 233499-124-R-J3-PDC spheroids with HUVEC/MSC, viability
Measurement notes: Anticancer human tumor 233499-124-R-J3-PDC patient-derived colon adenocarcinoma cell line growth inhibition [PI3K]
Recorded conditions: second compound 0.316 µM; first compound 0.00949 µM; active compounds read low
viability, T/C: recorded values
// note: answer is a bare numeric in %

Use the examples below as a reference point.
Cn1cnc2c(F)c(Nc3ccc(Br)cc3Cl)c(C(=O)NOCCO)cc21 + COc1c(OCCCN2CCOCC2)ccc2c3n(c(=NC(=O)c4cnc(N)nc4)nc12)CCN3	41.3
Cn1cnc2c(F)c(Nc3ccc(Br)cc3Cl)c(C(=O)NOCCO)cc21 + CC(Nc1ccc2c(c1)OCCn1cc(N3C(=O)OCC3C(F)F)nc1-2)C(N)=O	70.2
Cn1cnc2c(F)c(Nc3ccc(Br)cc3Cl)c(C(=O)NOCCO)cc21 + CC(Nc1ncnc2nc[nH]c12)c1cc2cccc(Cl)c2c(=O)n1-c1ccccc1	90

// next item, viability, T/C requested
GET /value?item= Cn1cnc2c(F)c(Nc3ccc(Br)cc3Cl)c(C(=O)NOCCO)cc21 + Cc1nc(NC(=O)N2CCCC2C(N)=O)sc1-c1ccnc(C(C)(C)C(F)(F)F)c1 &field=viability, T/C returns 64.2

====

Test system: 233499-124-R-J3-PDC spheroids with HUVEC/MSC, viability
Measurement notes: Anticancer human tumor 233499-124-R-J3-PDC cell line growth inhibition [PI3K];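 note: spheroids exposed to agents for seven days before readout; percent viability relative to DMSO vehicle control taken as 100%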
Recorded conditions: second compound 0.1 µM; first compound 0.03 µM; active compounds read low
Quantity measured: viability, T/C

Cn1cnc2c(F)c(Nc3ccc(Br)cc3Cl)c(C(=O)NOCCO)cc21 + COc1c(OCCCN2CCOCC2)ccc2c3n(c(=NC(=O)c4cnc(N)nc4)nc12)CCN3	67.5%
Cn1cnc2c(F)c(Nc3ccc(Br)cc3Cl)c(C(=O)NOCCO)cc21 + CC(Nc1ncnc2nc[nH]c12)c1cc2cccc(Cl)c2c(=O)n1-c1ccccc1	73.6%
Cn1cnc2c(F)c(Nc3ccc(Br)cc3Cl)c(C(=O)NOCCO)cc21 + Cc1nc(NC(=O)N2CCCC2C(N)=O)sc1-c1ccnc(C(C)(C)C(F)(F)F)c1	68%

As a next step, examine the compound that follows.
compound Cn1cnc2c(F)c(Nc3ccc(Br)cc3Cl)c(C(=O)NOCCO)cc21 + CC(Nc1ccc2c(c1)OCCn1cc(N3C(=O)OCC3C(F)F)nc1-2)C(N)=O , viability, T/C observed: 60.8%

====

System: 233499-124-R-J3-PDC spheroids with HUVEC/MSC, viability
Measurement notes: Anticancer human tumor 233499-124-R-J3-PDC cell line growth inhibition [PI3K]; active = viability on the fitted dose curve at most 10% of control; inactive = the rest;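 note: spheroids exposed to agents for seven days before readout; percent viability relative to DMSO vehicle control taken as 100%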
Recorded conditions: second compound 0.316 µM; first compound 3 µM
Excerpt: Combinatorial screen of targeted agents with the PI3K inhibitors inavolisib, alpelisib, duvelisib, and copanlisib in multi-cell type tumor spheroids A high-throughput screen of multi-cell type tumor spheroids was designed to identify active combinations of targeted small molecules and PI3K pathway inhibitors. […] Compounds. […] If the clinical Cmax for an agent had not been determined, the highest concentration tested was 10 microM. […]
Write down the outcome that applies. Available outcomes: TRUE for active, FALSE for inactive

Answered cases to consult:
Cn1cnc2c(F)c(Nc3ccc(Br)cc3Cl)c(C(=O)NOCCO)cc21 + CC(Nc1ccc2c(c1)OCCn1cc(N3C(=O)OCC3C(F)F)nc1-2)C(N)=O	FALSE
Cn1cnc2c(F)c(Nc3ccc(Br)cc3Cl)c(C(=O)NOCCO)cc21 + Cc1nc(NC(=O)N2CCCC2C(N)=O)sc1-c1ccnc(C(C)(C)C(F)(F)F)c1	FALSE
Cn1cnc2c(F)c(Nc3ccc(Br)cc3Cl)c(C(=O)NOCCO)cc21 + CC(Nc1ncnc2nc[nH]c12)c1cc2cccc(Cl)c2c(=O)n1-c1ccccc1	FALSE

Next, consider the following molecule.
Asked: Answer briefly: the call reported for Cn1cnc2c(F)c(Nc3ccc(Br)cc3Cl)c(C(=O)NOCCO)cc21 + COc1c(OCCCN2CCOCC2)ccc2c3n(c(=NC(=O)c4cnc(N)nc4)nc12)CCN3 in this assay.
Given back: TRUE
